Hi there, I'd appreciate the recorded zone of inhibition at 100 µg/mL for every entry that follows.
- System: Candida albicans
- Method summary: Antifungal activity against Candida albicans at 100 ug/ml after 48 to 72 hr by agar well diffusion method
- Type: functional
- Conditions: read-out: IZ
Please respond with the number in mm and leave the unit unwritten.

Test system Candida albicans; read-out zone of inhibition at 100 µg/mL; what value for Cc1nn(-c2ccccc2)c2c1c(-c1ccc(Cl)cc1)nc1nncn12 ? 18

And then Cc1nn(-c2ccccc2)c2nc(-n3[nH]c(=O)c(C#N)c3-c3cccs3)nc(-c3ccc(Cl)cc3)c12 , what is it? 20

And then Cc1nn(-c2ccccc2)c2nc(S)nc(-c3ccc(Cl)cc3)c12 , what is it? 29

And then Cc1nn(-c2ccccc2)c2nc(-n3nc(N)c(C#N)c3-c3ccc(Cl)cc3)nc(-c3ccc(Cl)cc3)c12 , what is it? 9

And then Cc1nn(-c2ccccc2)c2nc(-n3[nH]c(=O)c(C#N)c3-c3ccc(Cl)cc3)nc(-c3ccc(Cl)cc3)c12 , what is it? 24
